- assay-details: Amount of migration to brain quantified by GLP-2 ELISA
- Format: in vivo
- conditions-used: in vivo, inhaled or intranasal, 6.0 nmol/mouse intranasal, brain isolated 20 minutes after administration, read-out: amount of GLP-2 derivative in brain
Where no end group is shown, it is not given here. The star is where a group is joined. X1 = CC(=O)N[C@@H]1[C@@H](O)[C@H](O[C@@H]2O[C@H](CO)[C@@H](O[C@@H]3O[C@H](CO[C@H]4O[C@H](CO)[C@@H](O)[C@H](O)[C@@H]4O[C@@H]4O[C@H](CO)[C@@H](O[C@@H]5O[C@H](CO[C@]6(C(=O)O)C[C@H](O)[C@@H](NC(C)=O)[C@H]([C@H](O)[C@H](O)CO)O6)[C@H](O)[C@H](O)[C@H]5O)[C@H](O)[C@H]4NC(C)=O)[C@@H](O)[C@H](O[C@H]4O[C@H](CO)[C@@H](O)[C@H](O)[C@@H]4O[C@@H]4O[C@H](CO)[C@@H](O[C@@H]5O[C@H](CO[C@]6(C(=O)O)C[C@H](O)[C@@H](NC(C)=O)[C@H]([C@H](O)[C@H](O)CO)O6)[C@H](O)[C@H](O)[C@H]5O)[C@H](O)[C@H]4NC(C)=O)[C@@H]3O)[C@H](O)[C@H]2NC(C)=O)[C@@H](CO)O[C@H]1NC(=O)C*
measure: tissue level at time molar at 20 min (nmol/g)

[[record]]
substance = "FFLIPKGRRRRRRRRGGHADGSFSDEMNTILDNLAARDFINWLIQTKITDC(X1)-OH [PAS-CPP-GLP-2 (11-sugar)]"
measure = "tissue level at time molar at 20 min"
observed = 0.0106

